B1: CPEB3 Ribozyme (parent)
chain: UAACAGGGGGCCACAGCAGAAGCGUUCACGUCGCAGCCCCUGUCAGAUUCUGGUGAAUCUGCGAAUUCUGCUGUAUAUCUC

- Variants of: B1
- METHOD: self-cleavage, relative activity (ratio to wild type); higher = more cleavage; in vitro, sequencing
OUTCOME MEASURE: self-cleavage
Form field (numeric): enter value without unit.

Some variants with known self-cleavage results, for comparison:
> print(dat)
   variant.label  measured.value
1      U54A G63A            0.95
2      C37U C50A            0.47
3       G8A A15G             0.3

Entry A2C U58A , self-cleavage reported as 0.2

Kindly note the recorded self-cleavage for U51C U60A , which is 0.49

The reported self-cleavage of the variant U60C U67G was 0.2

Measured self-cleavage of U1A A21C : 0.28

Form field self-cleavage, entry A45C G63A : 0.49

For A35U U43G the variant record lists self-cleavage as 0.15

Source: the RNAGym collection of RNA variant scans (doi:10.1093/nar/gkz1192)
